Reported Relative Activity is given for each of the following molecules.
Target: Gallus N-acetyl-α-D-galactosaminidase (Gallus gallus, UniProt Q90744)
Construct: the cDNA clone corresponds to the region of the mRNA encoding the mature polypeptide for the chicken α-N-acetyl-galactosaminidase; from tissue; host or cells: chicken liver
Sequence (Q90744 whole entry S162A): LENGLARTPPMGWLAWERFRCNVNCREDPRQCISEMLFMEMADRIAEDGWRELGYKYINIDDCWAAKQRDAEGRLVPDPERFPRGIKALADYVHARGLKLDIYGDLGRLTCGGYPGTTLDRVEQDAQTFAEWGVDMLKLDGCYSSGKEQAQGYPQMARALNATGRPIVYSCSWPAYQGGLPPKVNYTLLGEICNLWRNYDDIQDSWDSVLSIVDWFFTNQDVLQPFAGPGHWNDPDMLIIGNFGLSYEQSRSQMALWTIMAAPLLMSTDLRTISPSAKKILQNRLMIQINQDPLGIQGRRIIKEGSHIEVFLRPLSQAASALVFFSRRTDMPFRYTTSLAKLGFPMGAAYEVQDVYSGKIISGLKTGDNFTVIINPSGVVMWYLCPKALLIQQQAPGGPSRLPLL
Assay: Substrate specificity (relative activity)
Type: biochemical, Gallus domesticus
Settings: Table VI, improved purification (Example 2); % of enzyme activity on the corresponding conjugate; 2.5 mM PNP conjugates, pH 3.5

For orientation, consider the following solved cases.
# MOLECULE, Relative Activity
data = [
    ("O=[N+]([O-])c1ccc(O[C@@H]2O[C@H](CO)[C@@H](O)[C@H](O)[C@H]2O)cc1 [PNP-β-D-glucopyranoside]", "< 0.08%"),
    ("O=[N+]([O-])c1ccc(O[C@@H]2O[C@H](CO)[C@H](O)[C@H](O)[C@H]2O)cc1 [PNP-β-D-galactopyranoside]", "< 0.08%"),
]

What value of measured Relative Activity is listed for Cc1cc(=O)oc2cc(O[C@H]3O[C@H](CO)[C@H](O)[C@H](O)[C@H]3O)ccc12 [4-MU-α-D-galactopyranoside] ?
100.00%

What value of measured Relative Activity is listed for C[C@@H]1O[C@H](Oc2ccc([N+](=O)[O-])cc2)[C@@H](O)[C@H](O)[C@@H]1O [PNP-β-L-fucopyranoside] ?
< 0.08%
